Target: Concanavalin-A (Canavalia ensiformis) (UniProt P02866)
Sequence (P02866 whole entry, looked up): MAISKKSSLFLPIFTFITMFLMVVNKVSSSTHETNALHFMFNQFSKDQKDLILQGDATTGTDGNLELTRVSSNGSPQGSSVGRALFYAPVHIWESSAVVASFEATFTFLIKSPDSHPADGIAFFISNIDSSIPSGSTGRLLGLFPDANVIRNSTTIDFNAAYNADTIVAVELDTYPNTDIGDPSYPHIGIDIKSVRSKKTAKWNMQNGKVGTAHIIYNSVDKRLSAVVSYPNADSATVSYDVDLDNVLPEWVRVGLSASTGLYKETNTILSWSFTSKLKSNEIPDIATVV
Test: compounds binding concanavalin A lectin – biochemical, small-molecule microarray, Alexa647 label, 635 nm, artefact control for SMM control protein annotation, primary screen (AID 1127);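 note: z combines 667 nm emission intensity with signal-to-noise across three replicate slides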
Conditions: ConA-A647 binding fluorescence, higher = more signal
Returns t if the recorded composite z-score is greater than or equal to 1, and f otherwise.

> print(dat)
                                   compound  cat
1  O=C(NCc1ccc(F)cc1)[C@H]1C[C@H]2C(=O)NCC(=O)N2[C@H]1c1ccc(O)cc1    f
2  CC(C)C(O)C1C=CC2C(=O)N(c3ccccc3)C(=O)C2N1Nc1ccccc1 (stereo not drawn)    f
3  Cn1cccc1C(O)C1C=CC2C(=O)N(c3ccccc3)C(=O)C2N1Nc1ccccc1 (stereo not drawn)    t
4  [N-]=[N+]=Nc1ccccc1[C@@H]1OC(c2ccc(OCCCO)cc2)=N[C@]1(Cc1ccccc1)C(=O)O    f
5  [N-]=[N+]=Nc1ccccc1C[C@@]1(C(=O)NCCN2CCOCC2)N=C(c2ccc(OCCCO)cc2)O[C@@H]1c1ccccc1N=[N+]=[N-]    t
6  CS(=O)(=O)CCOC(=O)C1=CC(c2ccc(CO)cc2)=CC(C2CC2)N(Cc2sc3ccccc3c2Cl)C=C1C(=O)OCCS(C)(=O)=O (stereo not drawn)    t
7  CC1CC/C=C\[C@H]2OC34C=CCN(C(C)C)C(=O)[C@H]3N(CCO)C(=O)[C@@H]4C2C(=O)O1 (stereo partly drawn)    f
8  [N-]=[N+]=NCc1ccccc1C[C@@]1(C(N)=O)N=C(c2ccc(OCCCO)cc2)O[C@@H]1c1ccccc1    f

---

Assay: blockers of DNA damage checkpoint Chk1 activation – imaging, HeLa, hydroxyurea, phospho-Chk1 nuclear intensity, primary screen (AID 1187); note: test concentration not given here
Conditions: hydroxyurea-induced phospho-Chk1 immunofluorescence imaging, higher = more signal
Quantity name: z-score

> print(dat)
                                    compound  endpoint.value
 1  CCCCCN1CC=CC23O[C@@H]4/C=C\CCCOC(=O)C4[C@H]2C(=O)N(C(C)CO)[C@@H]3C1=O (stereo partly specified)            0.37
 2  COCCCNC(=O)[C@@]1(CCC(=O)OC(C)(C)C)N=C(c2ccc(OCCCO)cc2)O[C@H]1c1ccccc1N=[N+]=[N-]            1.43
 3  C=CCN1C(=O)[C@]2(CCC(=O)OC(C)(C)C)N=C(c3ccc(OCCCO)cc3)O[C@@H]2c2ccccc21          -0.541
 4  CCCNC(=O)[C@@H]1c2ccccc2C(=O)N(Cc2ccc(OC(F)(F)F)cc2)[C@H]1c1ccc(CO)cc1          -0.366
 5  O=C1C2C=CC(C(O)C3CC=CCC3)N(Nc3ccccc3)C2C(=O)N1c1ccccc1 (stereo unspecified)           0.201
 6  NCCCCCNC(=O)[C@H]1C[C@H]2C(=O)N3CCC[C@H]3C(=O)N2[C@H]1c1cccc(OCCO)c1            0.53
 7  [N-]=[N+]=Nc1ccccc1C[C@]1(C(=O)N2CCOCC2)COC(c2ccc(OCCCO)cc2)=N1          -0.338
 8  CCCC=C(CCC)[C@@H](NS(=O)(=O)c1ccc(C(F)(F)F)cc1)c1ccccc1          -0.157
 9  CN(C)C(=O)[C@@]1(Cc2ccccc2)N=C(c2ccc(OCCCO)cc2)O[C@H]1c1ccccc1          -0.304
10  CCCCN1CC=CC23O[C@@H]4/C=C\CCC(C)OC(=O)C4[C@H]2C(=O)N(CCCO)[C@@H]3C1=O (stereo partly specified)          -0.112
11  CCCCC(CC)C(O)C1C=CC2C(=O)N(c3ccccc3)C(=O)C2N1Nc1ccc(C#N)cc1 (stereo unspecified)          -0.153
